Task for the reader: assign each of the following compounds its reported ED (maximum ILS).
- System: Leukemia L1210
- assay.info: Activity against Leukemia L1210, intraperitoneal, increase in life span of mice
- Assay type: in vivo, female mice (BDF1 family)
- test.settings: Mus musculus, L1210, ip, ip once a day for 5 successive days; daily dosage giving maximum increase of life span; read-out: O.D. (optimum dosage)
Answers are plain numbers, in mg/kg.

Take a look at these entries with their results.
> print(dat)
                                   compound  value.reported
1  CC(C)CCO[C@H]1O[C@H](CN(CC(C)C)C(=O)N(CCCl)N=O)[C@@H](O)[C@H](O)[C@H]1O             150
2  CCOCCCN(C[C@H]1O[C@H](OC(C)CC)[C@H](O)[C@@H](O)[C@@H]1O)C(=O)N(CCCl)N=O (stereo partly drawn)             180
3  CC(C)CO[C@H]1O[C@H](CN(CC(C)C)C(=O)N(CCCl)N=O)[C@H](O)[C@H](O)[C@H]1O             200

For every item below, please supply its ED (maximum ILS).
1. CC(C)CO[C@H]1O[C@H](CN(Cc2cccs2)C(=O)N(CCCl)N=O)[C@H](O)[C@H](O)[C@H]1O
2. COC(C)CCO[C@H]1O[C@H](CN(C(=O)N(CCCl)N=O)C(C)(C)C)[C@@H](O)[C@H](O)[C@H]1O (stereo partly drawn)
3. CC(CN1CCOCC1)O[C@@H]1O[C@H](CN(C(=O)N(CCCl)N=O)C(C)(C)C)[C@@H](O)[C@H](O)[C@H]1O (stereo partly drawn)
4. CCCCCCN(C[C@H]1O[C@H](OC2CCCCC2)[C@H](O)[C@@H](O)[C@H]1O)C(=O)N(CCCl)N=O
5. CC(C)CO[C@H]1O[C@H](CN(CC2CCCO2)C(=O)N(CCCl)N=O)[C@@H](O)[C@@H](O)[C@@H]1O (stereo partly drawn)
6. COCC(C)N(C[C@H]1O[C@H](OC2CCCCC2)[C@@H](O)[C@@H](O)[C@H]1O)C(=O)N(CCCl)N=O (stereo partly drawn)
7. CC(C)CO[C@H]1O[C@H](CO)[C@H](O)[C@H](N(CC(C)C)C(=O)N(CCCl)N=O)[C@H]1O
8. CCCCO[C@H]1O[C@H](CN(CCOCCO)C(=O)N(CCCl)N=O)[C@@H](O)[C@H](O)[C@H]1O

## Output
1: 180; 2: 180; 3: 150; 4: 200; 5: 180; 6: 170; 7: 250; 8: 170

// for each compound in input: emit ED (maximum ILS)
1. COc1ccc(CN(C(=O)N(CCCl)N=O)[C@H]2[C@@H](OCC(C)C)O[C@H](CO)[C@H](O)[C@@H]2O)cc1
2. COc1ccc(CN(C[C@H]2O[C@H](OC3CCCCC3)[C@H](O)[C@@H](O)[C@H]2O)C(=O)N(CCCl)N=O)cc1
3. COc1cc(CO[C@H]2O[C@H](CN(CC(C)C)C(=O)N(CCCl)N=O)[C@@H](O)[C@H](O)[C@H]2O)cc(OC)c1OC
4. COCC(C)O[C@H]1O[C@H](CN(CC(C)C)C(=O)N(CCCl)N=O)[C@@H](O)[C@H](O)[C@H]1O (stereo partly drawn)
5. CC(C)CO[C@H]1O[C@H](CN(Cc2ccccc2)C(=O)N(CCCl)N=O)[C@@H](O)[C@H](O)[C@H]1O
6. CC(C)CN(C[C@H]1O[C@H](OCC2CCCO2)[C@@H](O)[C@@H](O)[C@@H]1O)C(=O)N(CCCl)N=O (stereo partly drawn)

## Output
1: 170; 2: 200; 3: 120; 4: 170; 5: 170; 6: 200

Provide each entry's ED (maximum ILS) from the list below.
1. COCCCN(C(=O)N(CCCl)N=O)[C@@H]1CO[C@H](OC2CCCCC2)[C@@H](O)[C@@H]1O
2. O=NN(CCCl)C(=O)N(CC1CCCCC1)[C@H]1[C@@H](O)[C@@H](CO)O[C@H](OC2CCCCC2)[C@@H]1O
3. CC(C)CN(C[C@@H]1O[C@@H](OC2CCCCC2)[C@H](O)[C@@H]1O)C(=O)N(CCCl)N=O
4. C=C(C)CO[C@H]1O[C@H](CN(C(=O)N(CCCl)N=O)C(C)(C)C)[C@@H](O)[C@H](O)[C@H]1O
5. CCCCO[C@H]1O[C@H](CN(C)C(=O)N(CCCl)N=O)[C@@H](O)[C@H](O)[C@H]1O
6. COC(C)CN(C[C@H]1O[C@H](OC2CCCCC2)[C@H](O)[C@@H](O)[C@@H]1O)C(=O)N(CCCl)N=O (stereo partly drawn)

## Output
180
200
150
180
90
180

Provide each entry's ED (maximum ILS) from the list below.
1. CCCCO[C@H]1O[C@H](CO)[C@H](N(C(=O)N(CCCl)N=O)C(C)COC)[C@H](O)[C@H]1O (stereo partly drawn)
2. COCCN(C[C@H]1O[C@H](OCC(C)C)[C@H](O)[C@@H](O)[C@@H]1O)C(=O)N(CCCl)N=O

## Output
1. 160
2. 180

Could I get ED (maximum ILS) for every one of these entries?
1. CC(C)(C)O[C@H]1O[C@H](CN(C(=O)N(CCCl)N=O)C2CCCCC2)[C@@H](O)[C@H](O)[C@H]1O
2. CC(C)CN(C(=O)N(CCCl)N=O)[C@@H]1CO[C@H](OC2CCCCC2)[C@H](O)[C@H]1O

## Output
1: 160; 2: 150

---

- assay.info: Acute toxicity (LD50, Behrens-Karber method)
- Assay type: in vivo, ICR mice
- test.settings: mouse, in vivo, ip, mortality during 30 days
Please go through the items and note down their LD50 at 720 h.
Answers are plain numbers, in mg/kg.

// below: answered molecules
> print(dat)
                                   molecule        measure  value.reported
1  CC(CN1CCOCC1)O[C@@H]1O[C@H](CN(C(=O)N(CCCl)N=O)C(C)(C)C)[C@@H](O)[C@H](O)[C@H]1O (stereo partly shown) [Compound 200]  LD50 at 720 h             480
2  CC(C)CO[C@H]1O[C@H](CO)[C@H](O)[C@H](O)[C@H]1N(CC(C)C)C(=O)N(CCCl)N=O [Compound 122]  LD50 at 720 h             715
3  COCCCN(C(=O)N(CCCl)N=O)[C@@H]1[C@@H](O)[C@@H](OCC(C)C)O[C@@H]1CO [Compound 165]  LD50 at 720 h             480

# ---- query molecule ----
// LD50 at 720 h lookup, molecule = COCC(C)N(C[C@H]1O[C@H](OCCc2ccccc2)[C@@H](O)[C@H](O)[C@@H]1O)C(=O)N(CCCl)N=O (stereo partly shown) [Compound 141] , result: 480

---

- assay.info: Acute toxicity (LD50, Behrens-Karber method)
- Assay type: in vivo, ICR mice
- test.settings: mouse, in vivo, ip, mortality during 30 days
For each entry below, report its LD50 at 720 h value.
Answers are plain numbers, in mg/kg.

Previously resolved entries follow.
> print(dat)
                                    molecule        measure  value.reported
 1  COCC(C)OC1OC(CO)C(O)C(O)C1N(CC1CC1)C(=O)N(CCCl)N=O (centres unmarked) [Compound 72]  LD50 at 720 h             550
 2  O=NN(CCCl)C(=O)N(CCC1CCCC1)C1C(O)C(CO)OC(OC2CCCCC2)C1O (centres unmarked) [Compound 88]  LD50 at 720 h             710
 3  COC(C)CN(C[C@H]1O[C@H](OC(C)C)[C@H](O)[C@@H](O)[C@@H]1O)C(=O)N(CCCl)N=O (some centres unmarked) [Compound 2]  LD50 at 720 h             420
 4  O=NN(CCCl)C(=O)N(CC1CCCO1)[C@H]1[C@H](OC2CCCCC2)OC[C@H](O)[C@@H]1O (some centres unmarked) [Compound 156]  LD50 at 720 h             480
 5  O=NN(CCCl)C(=O)N(C1CCCCC1)C1C(OCC2CCCO2)OC(CO)C(O)C1O (centres unmarked) [Compound 75]  LD50 at 720 h             505
 6  CCOCCCO[C@H]1O[C@H](CN(CC(C)C)C(=O)N(CCCl)N=O)[C@@H](O)[C@H](O)[C@H]1O [Compound 32]  LD50 at 720 h             495
 7  CC(C)CN(C(=O)N(CCCl)N=O)[C@@H]1CO[C@H](OC2CCCCC2)[C@H](O)[C@H]1O [Compound 151]  LD50 at 720 h             490
 8  COCC(C)N(C[C@H]1O[C@H](OC2CCCC2)[C@H](O)[C@@H](O)[C@@H]1O)C(=O)N(CCCl)N=O (some centres unmarked) [Compound 172]  LD50 at 720 h             600
 9  CCC(C)O[C@@H]1OC[C@H](O)[C@H](O)[C@H]1N(CCCOC)C(=O)N(CCCl)N=O (some centres unmarked) [Compound 158]  LD50 at 720 h             530
10  CCC(COC)O[C@H]1O[C@H](CN(CC(C)(C)C)C(=O)N(CCCl)N=O)[C@@H](O)[C@H](O)[C@H]1O (some centres unmarked) [Compound 185]  LD50 at 720 h             550

Report LD50 at 720 h for each item below.
1. CC(C)CO[C@H]1O[C@H](CO)[C@H](N(CC(C)C)C(=O)N(CCCl)N=O)[C@H](O)[C@H]1O [Compound 129]
2. O=NN(CCCl)C(=O)N(CCCCO)C[C@H]1O[C@H](OC2CCCCC2)[C@H](O)[C@@H](O)[C@@H]1O [Compound 43]
3. COCCN(C(=O)N(CCCl)N=O)C1C(OC(C)COC)OC(CO)C(O)C1O (centres unmarked) [Compound 71]
4. CCC(C)O[C@H]1O[C@H](CN(C(=O)N(CCCl)N=O)C(C)CO)[C@@H](O)[C@H](O)[C@H]1O (some centres unmarked) [Compound 20]

## Output
[600, 520, 560, 560]

Please go through the list and note LD50 at 720 h for each molecule.
1. CCCCN(C(=O)N(CCCl)N=O)C1C(O)C(CO)OC(OCCCOC)C1O (centres unmarked) [Compound 76]
2. CCCCO[C@H]1O[C@H](CO)[C@H](O)[C@H](O)[C@H]1N(C)C(=O)N(CCCl)N=O [Compound 118]
3. COc1cccc(CN(C[C@H]2O[C@H](OC3CCCCC3)[C@H](O)[C@@H](O)[C@@H]2O)C(=O)N(CCCl)N=O)c1OC [Compound 49]
4. CCCCO[C@H]1O[C@H](CO)[C@@H](O)[C@H](O)[C@H]1N(CCOCCO)C(=O)N(CCCl)N=O [Compound 58]
5. CC(C)COC1OC(CO)C(N(C(=O)N(CCCl)N=O)C(C)C)C(O)C1O (centres unmarked) [Compound 92]
6. C=C(C)CN(C(=O)N(CCCl)N=O)C1C(CO)OC(OC2CCCCC2)C(O)C1O (centres unmarked) [Compound 97]

## Output
650
400
560
585
335
390
